assay remarks: endothelial E-selectin expression blockers – imaging, HUVEC, immunofluorescence, MLSMR starter and 10KST1 sets, primary screen (AID 487);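 further: signal is fraction of cell area covered by stained E-selectin grains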
protocol conditions: HUVEC TNFalpha-induced E-selectin immunofluorescence imaging, at 2 µM
Active and inactive are the calls of the source.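 How the source made its calls: active means visually confirmed hit in the image check and inhibition above 20%; inconclusive means visually confirmed hit but inhibition not above 20%; inactive means no visual hit in the image check.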
Outcome codes: active, inactive

molecule | group label
Cc1onc(-c2c(Cl)cccc2Cl)c1C(=O)NCCCN1CCOCC1 | inactive
O=C(NC1CCCCC1)C1CC(O)CN1C(=O)OCc1ccccc1 (centres undefined) | inactive
Cc1csc(NC(=O)c2sc3nc(-c4cccs4)ccc3c2N)n1 | inactive
Cc1ccc(CC23CN4CCN(CC(C4)C2O)C3)c(C)c1 (centres undefined) | inactive
CC(C)(C)NC(=O)C(c1ccco1)N(C(=O)Cn1nnc(-c2ccc(F)cc2)n1)c1ccccc1 (centres undefined) | inactive
Cc1ccc(NC(=O)CSc2nnc(NC(=O)CN3CCOCC3)s2)cc1 | inactive
CCOC(=O)c1[nH]cc(-c2ccccc2)c1N1CCOCC1 | inactive
CCOC(=O)CSC1=Nc2ccccc2C2=NC(CC(=O)NCc3cccs3)C(=O)N12 (centres undefined) | inactive
CN1CCN(C(=O)c2cnn3c(C(F)F)cc(C4CC4)nc23)CC1 | inactive
COc1cc(C2Nc3cccc4cccc(c34)N2)cc(OC)c1O | inactive
Nc1nc2ccccc2n1/N=C/c1ccc(Br)cc1 | inactive
Oc1c(I)cc(Cl)c2cccnc12 | inactive
COc1cccc(C2=NOC(C(=O)Nc3ccc(C(C)=O)cc3)C2)c1 (centres undefined) | inactive
O=C1NC(=O)C2(CCC(C(=O)O)C2)N1 (centres undefined) | inactive
COC(=O)C1=C(C)NC(=O)C1(NC(=O)c1cccnc1)C(F)(F)F (centres undefined) | inactive
O=C(c1nc2n(n1)C(c1ccc(Cl)cc1)C=C(c1ccccc1)N2)N1CCOCC1 (centres undefined) | inactive
CC1Oc2ccccc2N(CC(=O)N(Cc2ccccc2)Cc2ccccn2)C1=O (centres undefined) | active
COc1ccc(C2C(C(=O)c3sc(C)nc3C)=C(O)C(=O)N2CCN2CCOCC2)cc1 (centres undefined) | inactive
CSc1nc(N2CCOCC2)c2c(c1C#N)CCCCC2 | inactive

* * *

Below: a set of entries, each annotated with reported inhibition.
assay remarks: blockers of RIG-like receptor reporter activation – cell-based, Sendai virus stimulus, luciferase, 10K MLSCN set, TLR/RLR signaling modifier project, primary screen (AID 602276);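 further: firefly luciferase from ISG56 promoter only with Renilla not read in this screen; 0% = Sendai virus plus DMSO and 100% = medium plus DMSO without virus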
protocol conditions: HEK293 RL24 IRF3 luciferase reporter, at 10 µM, stronger effect = higher value

compound | unit spec | inhibition
O=C(Cn1cnc2c(nnn2-c2ccc(F)cc2)c1=O)NCc1ccco1 | % | 5.73
COCCn1cc(C(=O)NCCCN2CCC(C)CC2)c2c3ccccc3n(C)c2c1=O | % | 0.372
CC(Oc1ccccc1)C(=O)N1CCCc2ccccc21 (stereo unspecified) | % | 2.1
COc1cccc(Oc2ccc(N)cn2)c1 | % | -7.7
COc1ccc(-c2noc(-c3cc(Cl)ccc3Cl)n2)cc1OC | % | 0.153
COC(=O)c1cc(Br)ccc1-c1ccc(/C=N/n2nnnc2N)o1 | % | 15.2

* * *

Below: a set of entries, each annotated with reported NADPH fluorescence slope.
target entity: Voltage-gated potassium channel subunit beta-2 (Rattus norvegicus) (UniProt P62483)
Sequence (P62483 whole entry, looked up): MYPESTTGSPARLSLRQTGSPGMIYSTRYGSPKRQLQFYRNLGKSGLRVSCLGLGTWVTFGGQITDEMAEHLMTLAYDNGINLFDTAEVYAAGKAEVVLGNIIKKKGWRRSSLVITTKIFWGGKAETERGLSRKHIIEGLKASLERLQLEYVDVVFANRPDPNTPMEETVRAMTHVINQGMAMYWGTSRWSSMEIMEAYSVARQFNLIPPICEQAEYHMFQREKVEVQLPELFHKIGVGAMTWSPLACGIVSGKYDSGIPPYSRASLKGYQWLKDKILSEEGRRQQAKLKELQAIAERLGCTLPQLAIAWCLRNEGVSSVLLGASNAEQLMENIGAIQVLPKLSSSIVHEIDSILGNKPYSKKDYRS
assay remarks: enhancers of rat Kvbeta2 NADPH turnover – biochemical, NADPH fluorescence, primary screen (AID 623);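 further: fluorescence intensity change per second fitted from 20 to 320 s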
protocol conditions: Recombinant KvBeta, NADPH fluorescence decrease slope, 10 min; at 10 µM; stronger effect = lower value
measurement name: NADPH fluorescence slope

compound | target entity | reported result
CCOc1cc(C2C(C(=O)c3ccccc3)=C(C(=O)OC)Nc3nnnn32)ccc1O (stereo not given) | Voltage-gated potassium channel subunit beta-2 (Rattus norvegicus) (UniProt P62483) | -3.5e-05
Cc1nnc2ccc(N3CCC4(CC3)OCCO4)nn12 | Voltage-gated potassium channel subunit beta-2 (Rattus norvegicus) (UniProt P62483) | -3.3e-05
O=C(Nc1cc(Cl)ccc1Cl)c1noc2c1CCCC2 | Voltage-gated potassium channel subunit beta-2 (Rattus norvegicus) (UniProt P62483) | -9e-06
O=C(O)C1CC(=O)N(c2ccc(Br)cc2)C1 (stereo not given) | Voltage-gated potassium channel subunit beta-2 (Rattus norvegicus) (UniProt P62483) | -0.000215
COc1ccc(CNC(=O)c2cc(-c3ccc(OC)c(OC)c3)on2)cc1 | Voltage-gated potassium channel subunit beta-2 (Rattus norvegicus) (UniProt P62483) | -1.8e-05

* * *

Below: a set of entries, each annotated with reported cell count.
assay remarks: inhibitors of TNFa-induced NFkB p65 translocation, primary screen, imaging, HUVEC, MLSMR starter and 10KST1 sets (AID 438);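 further: compound added about 3h40 before a 20 min TNFalpha stimulation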
protocol conditions: HUVEC TNFa-induced p65 nuclear translocation; measured here: nuclei count (cytotoxicity indicator), at 2.08 µM

compound | cell count
CCCc1nc2ccccc2c(=O)n1NC(=O)c1c(O)c2cccc3c2n(c1=O)CCC3 | 554
COc1ccccc1-n1cnnc1SCC(=O)c1ccc[nH]1 | 544
Cc1nnc(NC(=O)Nc2cccc(Cl)c2)s1 | 481
CCOC(=O)c1c(NC(=O)c2ccoc2C)sc2c1CCC2 | 310
CN(C)CC(=O)N1c2ccccc2CCc2ccc(NC(=O)c3ccc(N)cc3)cc21 | 555
CCN1CCN(Cc2c(C)[nH]c3ccc(OC)cc3c2=O)CC1 | 405
CCOC(=O)CNC(=O)CSc1ncnc2c1cnn2-c1ccccc1 | 564
CCOC(=O)c1c(NC(=O)Cn2c(C)nc3ccccc32)sc2c1CCC2 | 459
O=C(O)c1ccc(-n2nnnc2Oc2ccccc2C(=O)N2CCOCC2)cc1 | 478
COc1ccc(CNc2nc(SCC(=O)NCc3ccco3)nc3ccccc23)cc1 | 705
O=C(Cn1cnc2c(oc3ccccc32)c1=O)N1CCN(c2ccccc2)CC1 | 648
COc1ccc(CN2C(=O)C(O)(CC(=O)c3c(C)n[nH]c3C)c3ccccc32)cc1OC (centres undefined) | 264
COc1cccc(/C(O)=C2/C(=O)C(=O)N(CCN3CCOCC3)C2c2cccnc2)c1 (centres undefined) | 270
CNC(=O)CN(C#N)c1nc(N(C)C)nc(N(C)C)n1 | 349
COC(=O)c1[nH]c2cccc(C)c2c1NC(=O)CN1CCCc2ccccc21 | 279
Cc1ccc2cc(CN(CC(C)C)C(=O)C3CCCO3)c(=O)[nH]c2c1 (centres undefined) | 510
COCCn1c(SCC(=O)Nc2nnc(C)s2)nnc1-c1ccncc1 | 564
CCCn1c(NCc2ccc3c(c2)OCO3)nc2ccccc21 | 650
CCC(c1nnnn1CCOC)N(Cc1ccc(C)cc1)Cc1cc2cc(OC)ccc2[nH]c1=O (centres undefined) | 519
CC1(C)Cc2noc(N)c2C(C)(C)N1OC(=O)c1ccco1 | 295
CCc1nnc(NC(=O)CSc2nc3ccccc3s2)s1 | 604
Nc1nnc(Cc2ccc(Cl)cc2)s1 | 331
CCOC(=O)C(CC)(CCC(=O)O)c1csc(N)n1 (centres undefined) | 518
O=C(NCCc1ccccc1)C1CCN(S(=O)(=O)N2CCC3(CC2)OCCO3)CC1 | 715
CCN(CC)c1ccc2c(c1)CCCN2 | 669
COc1ccc(C2C(C(=O)c3sc(C)nc3C)=C(O)C(=O)N2CCN2CCOCC2)cc1 (centres undefined) | 438
Cc1ccc(S(=O)(=O)NCCNC(=O)c2ccccc2)cc1 | 212
CCCCn1cnc2c(cnn2-c2ccc(Cl)cc2)c1=O | 342
COc1cc(C(N)=O)ccc1OCc1ccccc1 | 364
Cn1cccc1-c1nc2ccc(NC(=O)c3ccco3)cc2[nH]1 | 293
CC(C)(C)C(=O)N=C1SC2CS(=O)(=O)CC2N1c1ccc2c(c1)OCO2 (centres undefined) | 454
O=C1CC(c2ccco2)CC(O)=C1C=NCC1NCCc2ccccc21 (centres undefined) | 330
COc1cccc(C(=O)Nc2cccc(C(=O)N3CCOCC3)c2)c1 | 354
Cn1ccnc1C(O)c1ccco1 (centres undefined) | 722
COc1cccc(OC)c1C(=O)Nc1ccccc1N1CCCC1 | 417
O=C(NC1CCCC1)c1ccc(S(=O)(=O)N2CCCC2)cc1 | 452
Cn1nc(-c2ccc(C(=O)N3CCN(c4ccccc4)CC3)cc2)c2ccccc2c1=O | 769
O=C(NCc1ccc(F)cc1)c1cc(-c2ccco2)on1 | 330
COc1ccccc1C(=O)NCCc1nc2ccccc2n1C | 564

* * *

assay remarks: Primary imaging screen for DUSP6 inhibitors that restore phospho-Erk in transfected HeLa cells, chemical complementation (AID 609)
protocol conditions: HeLa MKP-3 transfected, phospho-Erk imaging KS statistic; measured here: nuclear pErk red intensity z-score; at 10 µM; stronger effect = higher value; cells stimulated with TPA for 15 min
Below: a set of entries, each annotated with reported z-score.

compound | z-score
CCn1cc(C(=O)O)c(=O)c2cnc(N3CCNCC3)nc21 | 0.576
CN1CC(=O)Nc2ccc(F)cc2C1=O | -1.19
Clc1ccc(Cn2c(CN3CCCC3)nc3ccccc32)cc1 | 0.417
CCc1cccc2c3c([nH]c12)C(CC)(CC(=O)O)OCC3 (stereo not drawn) | -0.905
C=CCNc1nc(C2(C)CC3(CC(C)(C)OC3=O)C(=O)O2)cs1 (stereo not drawn) | -1.68
Cc1nnc(NS(=O)(=O)c2ccc(N)cc2)s1 | 0.118
CCC1=Nc2ccccc2NC2=C1C(=O)CCC2 | -0.00909
CCC(=O)Oc1oc(-c2ccccc2)nc1C=Nc1ccccc1OC | 1.48
CN(C)CCOC(c1ccccc1)c1ccccc1 (tested in a mixture with another compound) | -0.839
Cc1cc(C(C)(C)C)cc(C)c1CC1=NCCN1 | -0.727
CCc1nc(N)nc(N)c1-c1ccc(Cl)cc1 | -0.22
O=c1n(CCCN2CCN(c3cccc(Cl)c3)CC2)nc2ccccn12 | 0.38
Nc1nc2c(ncn2COCCO)c(=O)[nH]1 | -1.02
Cc1cc(C)n(C(=O)CNC(=O)c2ccc3c(c2)OCCO3)n1 | -1.28
Cc1ccc(N2CN=c3s/c(=C\c4cccnc4)c(=O)n3C2)cc1 | 0.633
CC(C)[N+]1(C)[C@@H]2CC[C@H]1CC(OC(=O)C(CO)c1ccccc1)C2 (stereo partly drawn) | -1.49
c1ccc2c(c1)CCCC2C1=NCCN1 (stereo not drawn) | 0.367
Cc1cccc(CN2CCN(C(c3ccccc3)c3ccc(Cl)cc3)CC2)c1 (stereo not drawn) | -0.398
